Taken from patent US8404738B2.

- Target of assay: HDAC6 (Homo sapiens, UniProt Q9UBN7)
- Construct: endogenous in cells; host or cells: A549 cells
- Sequence (Q9UBN7 whole entry): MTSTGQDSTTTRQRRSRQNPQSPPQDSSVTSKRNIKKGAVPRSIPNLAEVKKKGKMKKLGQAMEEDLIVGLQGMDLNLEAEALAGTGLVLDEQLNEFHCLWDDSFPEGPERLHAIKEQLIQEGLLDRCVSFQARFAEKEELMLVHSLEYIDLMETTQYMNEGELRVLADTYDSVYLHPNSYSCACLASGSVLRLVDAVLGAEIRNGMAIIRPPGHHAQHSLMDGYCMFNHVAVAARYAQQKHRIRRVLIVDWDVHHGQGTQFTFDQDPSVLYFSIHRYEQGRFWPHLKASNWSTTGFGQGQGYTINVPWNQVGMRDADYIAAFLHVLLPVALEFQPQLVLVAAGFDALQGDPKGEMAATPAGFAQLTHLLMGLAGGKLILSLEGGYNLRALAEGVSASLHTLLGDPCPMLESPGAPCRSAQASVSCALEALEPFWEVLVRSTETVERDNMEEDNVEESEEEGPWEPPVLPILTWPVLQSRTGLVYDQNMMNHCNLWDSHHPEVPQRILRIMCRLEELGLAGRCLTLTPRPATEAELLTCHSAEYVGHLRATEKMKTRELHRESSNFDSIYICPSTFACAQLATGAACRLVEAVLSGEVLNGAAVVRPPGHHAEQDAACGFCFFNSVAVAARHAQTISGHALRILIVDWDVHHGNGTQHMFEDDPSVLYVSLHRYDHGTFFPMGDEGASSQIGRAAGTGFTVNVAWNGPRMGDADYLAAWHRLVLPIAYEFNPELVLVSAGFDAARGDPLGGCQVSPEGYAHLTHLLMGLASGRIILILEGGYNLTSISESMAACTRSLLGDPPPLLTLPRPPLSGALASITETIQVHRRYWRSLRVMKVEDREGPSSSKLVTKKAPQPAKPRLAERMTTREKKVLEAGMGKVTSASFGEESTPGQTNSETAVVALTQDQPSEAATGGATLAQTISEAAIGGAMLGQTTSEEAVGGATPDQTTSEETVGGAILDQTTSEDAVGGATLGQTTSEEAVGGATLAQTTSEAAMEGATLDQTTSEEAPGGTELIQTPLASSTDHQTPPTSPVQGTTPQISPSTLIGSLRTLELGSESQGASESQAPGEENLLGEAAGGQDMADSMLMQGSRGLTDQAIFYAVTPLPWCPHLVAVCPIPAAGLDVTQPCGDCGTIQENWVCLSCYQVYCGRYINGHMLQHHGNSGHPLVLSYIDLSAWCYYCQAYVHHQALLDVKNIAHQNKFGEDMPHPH
- Method notes: Tubulin acetylation cytoblot assay (A549 cells)
- Format: cell-based
- Stated conditions: 17-18 h incubation, tubulin acetylation as marker of HDAC6 inhibition, read-out: Tub-Ac EC50

| Compound | Target of assay | EC50, µM |
| --- | --- | --- |
| N#Cc1ccc(N2CCC(Nc3ccc(C(=O)NO)cc3)C2=O)cc1 (stereo not drawn) [Example 19] | HDAC6 (Homo sapiens, UniProt Q9UBN7) | 3.14 |
| O=C(NO)c1ccc(NC2CCN(c3cc(Cl)ccc3F)C2=O)cc1 (stereo not drawn) [Example 22] | HDAC6 (Homo sapiens, UniProt Q9UBN7) | 1.32 |
| O=C(NO)c1ccc(NC2CC(=O)N(c3ccccc3Cl)C2)cc1 (stereo not drawn) [Example 71] | HDAC6 (Homo sapiens, UniProt Q9UBN7) | 0.81 |
| CC1C(=O)N(c2ccc(Cl)cc2)CC1Nc1ccc(C(=O)NO)cc1 (stereo not drawn) [Example 78] | HDAC6 (Homo sapiens, UniProt Q9UBN7) | 1.81 |
| O=C(NO)c1ccc(NC2CCN(c3cccc4ncccc34)C2=O)cc1 (stereo not drawn) [Example 40] | HDAC6 (Homo sapiens, UniProt Q9UBN7) | 1.31 |
| O=C(NO)c1ccc(NC2CCN(c3cccc(Cl)c3Cl)C2=O)cc1 (stereo not drawn) [Example 24] | HDAC6 (Homo sapiens, UniProt Q9UBN7) | 2.48 |
| O=C(NO)c1ccc(NC2CC(=O)N(c3cccc(Cl)c3)C2)cc1 (stereo not drawn) [Example 72] | HDAC6 (Homo sapiens, UniProt Q9UBN7) | 2.34 |
| O=C(NO)c1ccc(NC2CCN(C3(c4ccccc4)CCCC3)C2=O)cc1 (stereo not drawn) [Example 55] | HDAC6 (Homo sapiens, UniProt Q9UBN7) | 4.75 |
| CC1(Nc2ccc(C(=O)NO)cc2)C(=O)N(Cc2cccc(Cl)c2)c2ccccc21 (stereo not drawn) [Example 93] | HDAC6 (Homo sapiens, UniProt Q9UBN7) | 0.41 |
| O=C(NO)c1ccc(NC2CCN(c3c(Cl)cccc3Cl)C2)cc1 (stereo not drawn) [Example 81] | HDAC6 (Homo sapiens, UniProt Q9UBN7) | 0.72 |
| O=C(NO)c1ccc(NC2CCN(c3cccc(Oc4ccccc4)c3)C2=O)cc1 (stereo not drawn) [Example 30] | HDAC6 (Homo sapiens, UniProt Q9UBN7) | 2.28 |
| CC(C)(c1ccc(-c2ccccc2)cc1)N1CCC(Nc2ccc(C(=O)NO)cc2)C1=O (stereo not drawn) [Example 51] | HDAC6 (Homo sapiens, UniProt Q9UBN7) | 8.99 |
| CC(C)(C)c1ccc(N2CCC(Nc3ccc(C(=O)NO)cc3)C2=O)cc1 (stereo not drawn) [Example 16] | HDAC6 (Homo sapiens, UniProt Q9UBN7) | 1.06 |
| CC1(Nc2ccc(C(=O)NO)cc2)C(=O)N(c2ccccc2)c2ccccc21 (stereo not drawn) [Example 95] | HDAC6 (Homo sapiens, UniProt Q9UBN7) | 0.08 |
| CC(C)(c1ccccc1)N1CC(Nc2ccc(C(=O)NO)cc2)CC1=O (stereo not drawn) [Example 76] | HDAC6 (Homo sapiens, UniProt Q9UBN7) | 3.02 |
| CC1(Nc2ccc(C(=O)NO)cc2)CCN(c2cnc3ccccc3c2)C1=O (stereo not drawn) [Example 61] | HDAC6 (Homo sapiens, UniProt Q9UBN7) | 8.25 |
| O=C(NO)c1ccc(NC2CCN(c3ccccc3)C2=O)c(Cl)c1 (stereo not drawn) [Example 69] | HDAC6 (Homo sapiens, UniProt Q9UBN7) | 8.23 |
| CC1(Nc2ccc(C(=O)NO)cc2)C(=O)N(c2cccc(Cl)c2)c2ccccc21 (stereo not drawn) [Example 96] | HDAC6 (Homo sapiens, UniProt Q9UBN7) | 0.32 |
| CN(C)CCOc1cccc(N2CCC(Nc3ccc(C(=O)NO)cc3)C2=O)c1 (stereo not drawn) [Example 36] | HDAC6 (Homo sapiens, UniProt Q9UBN7) | 2.05 |
| O=C(NO)c1ccc(NC2CCN(c3c(Cl)cccc3Cl)C2=O)cc1 (stereo not drawn) [Example 27] | HDAC6 (Homo sapiens, UniProt Q9UBN7) | 2.38 |
| O=C(NO)c1ccc(NC2CCN(c3cccc4ccccc34)C2=O)cc1 (stereo not drawn) [Example 37] | HDAC6 (Homo sapiens, UniProt Q9UBN7) | 2.16 |
| C[C@H](c1ccccc1)N1CCC(Nc2ccc(C(=O)NO)cc2)C1=O (stereo partly drawn) [Example 44] | HDAC6 (Homo sapiens, UniProt Q9UBN7) | 6.31 |
| O=C(NO)c1ccc(NC2CCN(c3ccc(Cl)c(Cl)c3)C2=O)cc1 (stereo not drawn) [Example 25] | HDAC6 (Homo sapiens, UniProt Q9UBN7) | 4.33 |
| CC1(Nc2ccc(C(=O)NO)cc2)C(=O)N(c2cccc(Cl)c2)c2ccncc21 (stereo not drawn) [Example 100] | HDAC6 (Homo sapiens, UniProt Q9UBN7) | 0.71 |
